// reported pIC50 per item
# experimental.system: HCV polymerase (NS5B) type 1b (Hepatitis C virus genotype 1b, UniProt P26663)
# Construct: a region encoding NS5B (J Virol 1991 March, 65(3), 1105-13, 544 amino acids after deletion of 47 amino acids on the C-terminal); 6xHis (C); made in house; host or cells: Escherichia coli
# Sequence (P26663 2420-2963): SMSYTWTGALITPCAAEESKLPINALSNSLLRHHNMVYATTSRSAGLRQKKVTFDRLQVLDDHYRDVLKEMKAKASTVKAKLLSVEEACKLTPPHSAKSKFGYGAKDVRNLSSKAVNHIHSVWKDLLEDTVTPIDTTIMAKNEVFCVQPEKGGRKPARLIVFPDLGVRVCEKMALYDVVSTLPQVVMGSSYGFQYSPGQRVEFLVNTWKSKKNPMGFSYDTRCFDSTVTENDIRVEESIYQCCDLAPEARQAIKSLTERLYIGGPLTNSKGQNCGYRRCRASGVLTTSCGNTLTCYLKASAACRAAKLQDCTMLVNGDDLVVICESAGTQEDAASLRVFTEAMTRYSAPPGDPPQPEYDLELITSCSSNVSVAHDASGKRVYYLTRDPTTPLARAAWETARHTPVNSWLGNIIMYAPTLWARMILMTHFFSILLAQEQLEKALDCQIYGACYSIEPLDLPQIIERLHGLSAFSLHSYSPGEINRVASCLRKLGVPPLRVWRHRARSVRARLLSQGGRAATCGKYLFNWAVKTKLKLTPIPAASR
# protocol: Assay of enzyme (HCV polymerase) inhibitory activity, type 1b enzyme
# Format: biochemical, HCV BK strain (type 1b)
# test.settings: HCV polymerase inhibitory activity (IC50), 1b, type 1b enzyme 0.5 μg/ml, 25° C., 60 min
pIC50: −log10 of the molar value.

Here's what some known entries look like.
>  <compound>
CC(=O)N1CCN(S(=O)(=O)c2ccc(C(C)C)cc2)C(C(=O)NCCc2ccccc2)C1 (centres unmarked)

>  <pIC50>
< 6.00

$$$$
>  <compound>
CC(=O)NCCC(=O)N1CCN(S(=O)(=O)c2ccc(C(F)(F)F)cc2)[C@@H](C(=O)NCc2ccc(C(C)C)cc2)C1

>  <pIC50>
6.00 to 7.00

$$$$
>  <compound>
CCCc1ccc(S(=O)(=O)N2CCN(c3nc(C(=O)OCC)cs3)C[C@@H]2C(=O)NCc2ccc(C(C)C)cc2)cc1

>  <pIC50>
> 7.00

$$$$
>  <compound>
CC(=O)N1CCN(S(=O)(=O)c2ccc(C(C)C)cc2)[C@@H](C(=O)NCc2ccc(C(C)C)cc2C)C1

>  <pIC50>
> 7.00

$$$$

Find the recorded pIC50 belonging to CC(=O)N1CCN(S(=O)(=O)c2ccc(C(C)C)cc2)C(C(=O)NCc2ccc(N3CCCCC3)cc2)C1 (centres unmarked) and report it.
< 6.00

Find the recorded pIC50 belonging to `CC(C)c1ccc(CNC(=O)[C@H]2CN(C(=O)Nc3ccc(Cl)cc3)CCN2S(=O)(=O)c2ccc(C(F)(F)F)cc2)cc1` and report it.
< 6.00

Find the recorded pIC50 belonging to CC(=O)N1CCN(S(=O)(=O)c2ccc(C(C)C)cc2)C(C(=O)NCc2ccc(-c3ccc(Cl)cc3)cc2)C1 (centres unmarked) and report it.
< 6.00

Find the recorded pIC50 belonging to `CCC(F)(F)c1ccc(CNC(=O)[C@H]2CN(C(=O)Nc3ccnc(C(F)(F)F)c3)CCN2S(=O)(=O)c2ccc(OC(F)(F)F)cc2)cc1` and report it.
6.00 to 7.00

---

// reported IC50 per item
# experimental.system: HCV polymerase (NS5B) type 1b (Hepatitis C virus genotype 1b, UniProt P26663)
# Construct: a region encoding NS5B (J Virol 1991 March, 65(3), 1105-13, 544 amino acids after deletion of 47 amino acids on the C-terminal); 6xHis (C); made in house; host or cells: Escherichia coli
# protocol: Assay of enzyme (HCV polymerase) inhibitory activity, type 1b enzyme
# Type: biochemical, HCV BK strain (type 1b)
# test.settings: HCV polymerase inhibitory activity (IC50), 1b, type 1b enzyme 0.5 μg/ml, 25° C., 60 min

Here's what some known entries look like.
>  <compound>
CCOC(=O)c1csc(N2CCN(S(=O)(=O)c3ccc(C(C)C)cc3)C(C(=O)NCc3ccc(C(F)(F)F)cc3)C2)n1 (stereo not drawn)

>  <experimental.system>
HCV polymerase (NS5B) type 1b (Hepatitis C virus genotype 1b, UniProt P26663)

>  <IC50>
> 1000 nM

$$$$
>  <compound>
CC(=O)N1CCN(S(=O)(=O)c2ccc(C3CCCCC3)cc2)C(C(=O)NCc2ccc(C(F)(F)F)cc2)C1 (stereo not drawn)

>  <experimental.system>
HCV polymerase (NS5B) type 1b (Hepatitis C virus genotype 1b, UniProt P26663)

>  <IC50>
> 1000 nM

$$$$
>  <compound>
COC(=O)CCOc1ccc(S(=O)(=O)N2CCN(C(C)=O)C[C@@H]2C(=O)NCc2ccc(C(C)C)cc2)cc1

>  <experimental.system>
HCV polymerase (NS5B) type 1b (Hepatitis C virus genotype 1b, UniProt P26663)

>  <IC50>
100 to 1000 nM

$$$$
>  <compound>
CC(C)(C)c1ccc(CNC(=O)[C@H]2CN(c3ncc(CO)s3)CCN2S(=O)(=O)c2ccc(OC(F)(F)F)cc2)cc1

>  <experimental.system>
HCV polymerase (NS5B) type 1b (Hepatitis C virus genotype 1b, UniProt P26663)

>  <IC50>
< 100 nM

$$$$
>  <compound>
CC(=O)N1CCN(S(=O)(=O)c2ccccc2)C(C(=O)NCc2ccc(C(F)(F)F)cc2)C1 (stereo not drawn)

>  <experimental.system>
HCV polymerase (NS5B) type 1b (Hepatitis C virus genotype 1b, UniProt P26663)

>  <IC50>
> 1000 nM

$$$$

Find the recorded IC50 belonging to `CCOC(=O)Cc1nnnn1CC(=O)N1CCN(S(=O)(=O)c2ccc(C(F)(F)F)cc2)[C@@H](C(=O)NCc2ccc(C(C)C)cc2)C1` and report it.
100 to 1000 nM

Find the recorded IC50 belonging to CC(=O)N1CCN(S(=O)(=O)c2ccc(C(C)C)cc2)C(C(=O)NCc2ccc(-c3cccc(Cl)c3)cc2)C1 (stereo not drawn) and report it.
> 1000 nM

Find the recorded IC50 belonging to `CC(C)c1ccc(CNC(=O)[C@H]2CN(c3ncc(C(=O)O)cn3)CCN2S(=O)(=O)c2ccc(C(F)(F)F)cc2)cc1` and report it.
100 to 1000 nM

Find the recorded IC50 belonging to CC(=O)N1CCN(S(=O)(=O)c2ccc(C(C)C)cc2)C(C(=O)NCc2ccc(Cl)c(Cl)c2)C1 (stereo not drawn) and report it.
> 1000 nM
